Test system: LHPP gene
Assay: High-throughput screening of saRNAs targeting LHPP promoter: LHPP mRNA by one-step RT-qPCR in Huh7 cells
Format: cell-based, human
Details: 10 nM saRNA, 72 hours, relative to control (Mock)
Procedure: Human liver cancer cell line Huh7 was cultured in DMEM medium (Gibco), containing 10% of calf serum (Sigma-Aldrich) and 1% of penicillin/streptomycin (Gibco). The cells were cultured at 5% CO2 and 37° C. According to the instructions provided by the manufacturer, RNAiMax (Invitrogen, Carlsbad, Calif.) was used to transfect small activating RNAs at a concentration of 10 nM (unless otherwise specified). […]
d = 2'-deoxy (DNA); r = 2'-OH (RNA)
Fold of changes in relative LHPP mRNA expression level listing for selected substances.
Parameter Measured: Fold of changes in relative LHPP mRNA expression level

>  <Substance>
RAG7-897: saRNA duplex; sense AGCUAUGUUGGACCAGAAGTT (SEQ ID NO: 65), antisense CUUCUGGUCCAACAUAGCUTT (SEQ ID NO: 229) (sugars from the 5' end r19 d2, backbone not given here)

>  <Result>
1.31 fold

$$$$
>  <Substance>
RAG7-121: saRNA duplex; sense CUGAUCUCCUGGGAAGAAATT (SEQ ID NO: 52), antisense UUUCUUCCCAGGAGAUCAGTT (SEQ ID NO: 216) (sugars from the 5' end r19 d2, backbone not given here)

>  <Result>
1.36 fold

$$$$
